Attribution: patent US20230072421A1

Kindly supply the reported remaining activity at 0.1 µM values for the records listed here.
molecular target: PSMA-expressing LNCaP cells (Homo sapiens, UniProt Q04609); construct: PSMA-expressing LNCaP cells; endogenous in cells; host or cells: LNCaP; assay: Binding competition assay against 3H-PSMA-617 on LNCaP cells; details: LNCaP cells; 10 nM 3H-PSMA-617; competing non-radiolabeled compound 100 nM; 2 h at 37° C.; triplicates
Sequence (Q04609 whole entry): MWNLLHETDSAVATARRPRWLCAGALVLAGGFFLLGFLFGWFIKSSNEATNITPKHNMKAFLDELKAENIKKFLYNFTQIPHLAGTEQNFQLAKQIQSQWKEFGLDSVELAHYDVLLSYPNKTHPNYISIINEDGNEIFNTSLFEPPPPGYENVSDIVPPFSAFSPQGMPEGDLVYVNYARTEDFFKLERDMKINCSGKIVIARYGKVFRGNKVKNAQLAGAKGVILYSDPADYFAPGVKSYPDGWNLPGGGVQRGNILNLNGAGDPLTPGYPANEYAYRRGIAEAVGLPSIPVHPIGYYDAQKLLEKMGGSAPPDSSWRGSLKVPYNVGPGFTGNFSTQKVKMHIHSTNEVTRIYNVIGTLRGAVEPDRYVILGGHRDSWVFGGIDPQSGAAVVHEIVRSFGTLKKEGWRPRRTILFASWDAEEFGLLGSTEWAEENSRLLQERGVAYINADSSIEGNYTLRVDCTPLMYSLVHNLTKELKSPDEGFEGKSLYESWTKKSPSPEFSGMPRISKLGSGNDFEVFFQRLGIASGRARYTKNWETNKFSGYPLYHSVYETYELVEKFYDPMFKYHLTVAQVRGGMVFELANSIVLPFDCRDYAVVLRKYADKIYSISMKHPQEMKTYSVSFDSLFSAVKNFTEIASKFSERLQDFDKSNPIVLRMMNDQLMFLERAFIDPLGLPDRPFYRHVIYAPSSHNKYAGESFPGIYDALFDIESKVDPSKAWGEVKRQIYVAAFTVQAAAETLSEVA
Give bare numbers, in %.

[[record]]
smiles_notation = "O=C(O)CC[C@H](NC(=O)N[C@@H](CCCCNC(=O)[C@@H](Cc1ccc2cnccc2c1)NC(=O)[C@H]1CC[C@H](CNC(=O)CN2CCN(CC(=O)O)CCN(CC(=O)O)CCN(CC(=O)O)CC2)CC1)C(=O)O)C(=O)O"
data_value = 22


Find the recorded remaining activity at 0.1 µM belonging to O=C(O)CC[C@H](NC(=O)N[C@@H](CCCCNC(=O)[C@H](Cc1ccc2ccccc2c1)NC(=O)Cc1ccc(NC(=O)CN2CCN(CC(=O)O)CCN(CC(=O)O)CCN(CC(=O)O)CC2)cc1)C(=O)O)C(=O)O and report it.
18

---

experiment: Biodistribution study in LNCaP tumor-bearing mice (Th227 counted in organs); assay type: in vivo, SCID mice; settings: 4 hr; 1500 kBq/kg
Provide the reported Th-227 in bone of each item.
One number for each entry, in % ID Th-227/g organ.

Solved entries:
[[record]]
compound = "O=C([O-])CN1CCN(CC(=O)[O-])CCN(CC(=O)NCC2CCC(C(=O)NC(Cc3ccc4ccccc4c3)C(=O)NCCCCC(NC(=O)NC(CCC(=O)O)C(=O)O)C(=O)O)CC2)CCN(CC(=O)[O-])CC1.[227Th+4] (stereo not shown) [Example 1-B-227Th]"
recorded_endpoint = "Th-227 in bone"
data_value = 7.25

[[record]]
compound = "O=C([O-])CN1CCN(CC(=O)[O-])CCN(CC(=O)NCc2ccc(C(=O)N[C@@H](Cc3ccc4ccccc4n3)C(=O)NCCCC[C@H](NC(=O)N[C@@H](CCC(=O)O)C(=O)O)C(=O)O)nc2)CCN(CC(=O)[O-])CC1.[227Th+4] [Example 34-B-227Th]"
recorded_endpoint = "Th-227 in bone"
data_value = 1.44


Answer for every listed entry: what is its Th-227 in bone? The entries follow.
1. O=C([O-])CN1CCN(CC(=O)[O-])CCN(CC(=O)NCC2CCC(C(=O)NC(Cc3ccc4ccccc4c3)C(=O)NCCCCC(NC(=O)NC(CCC(=O)O)C(=O)O)C(=O)O)CC2)CCN(CC(=O)[O-])CC1.[227Th+4] [Example 1-B-D-227Th]
2. Cc1cc(C(=O)NCCN(CCCN(CCNC(=O)c2cc(C)n(CC(=O)O)c(=O)c2[O-])CCNC(=O)c2cc(C)n(CC(=O)NCC3CCC(C(=O)NC(Cc4cnc5ccccc5c4)C(=O)NCCCCC(NC(=O)NC(CCC(=O)O)C(=O)O)C(=O)O)CC3)c(=O)c2[O-])CCNC(=O)c2cc(C)n(CC(=O)NCC3CCC(C(=O)NC(Cc4cnc5ccccc5c4)C(=O)NCCCCC(NC(=O)NC(CCC(=O)O)C(=O)O)C(=O)O)CC3)c(=O)c2[O-])c([O-])c(=O)n1CC(=O)O.[227Th+4] (stereo not shown) [Example 22-C dimer-227Th]

1: 1.68; 2: 0.74
